System: human FZD5
Protocol: TOPFlash reporter gene assay in ΔFZD1–10 HEK293T cells transfected with HiBiT-FZD5
Type: cell-based
Experimental conditions: Homo sapiens, HEK-293T; 300 ng/ml WNT-3A; HiBiT-FZD5; equal to the pIC50; read-out: IC50, inhibition of WNT-3A-induced TOPFlash response
Measured property: IC50 (nM)
State the answer as a number, implicitly in nM.

QUERY: Provide only the value of recorded IC50 for CC(=O)Nc1cccc(C(=O)NC2CCC(N(Cc3cccc(-c4ccncc4)c3)C(=O)c3sc4ccccc4c3Cl)CC2)c1 (stereo not shown) [compound 11]
RESULT: 1200

* * *

Target or test system: Nluc-FZD6 (Homo sapiens, UniProt O60353)
Construct: expressed in transfected cells; host or cells: ΔSMO HEK293A or ΔFZD1–10 HEK293T cells (screen); ΔFZD1–10 HEK293T cells (concentration–response curves)
Sequence (O60353 19-706): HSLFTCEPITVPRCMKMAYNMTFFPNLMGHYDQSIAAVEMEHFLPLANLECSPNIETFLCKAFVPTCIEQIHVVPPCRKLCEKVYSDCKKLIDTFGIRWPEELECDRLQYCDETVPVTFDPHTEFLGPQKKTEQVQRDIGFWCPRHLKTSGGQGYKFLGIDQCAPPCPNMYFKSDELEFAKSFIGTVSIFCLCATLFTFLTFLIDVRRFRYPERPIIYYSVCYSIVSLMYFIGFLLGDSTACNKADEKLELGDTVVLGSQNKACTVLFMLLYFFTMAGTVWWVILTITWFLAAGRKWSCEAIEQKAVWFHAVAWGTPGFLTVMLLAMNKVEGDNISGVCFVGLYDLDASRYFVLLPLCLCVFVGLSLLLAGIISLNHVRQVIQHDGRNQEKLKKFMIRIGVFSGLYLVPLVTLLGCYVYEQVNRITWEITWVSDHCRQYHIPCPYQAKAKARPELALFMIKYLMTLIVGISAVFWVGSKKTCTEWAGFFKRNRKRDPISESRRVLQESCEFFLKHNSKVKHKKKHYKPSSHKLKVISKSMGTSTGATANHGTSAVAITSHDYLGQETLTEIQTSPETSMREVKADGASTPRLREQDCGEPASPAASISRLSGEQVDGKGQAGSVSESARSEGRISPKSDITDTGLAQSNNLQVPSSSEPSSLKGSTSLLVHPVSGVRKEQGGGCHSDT
Protocol: BRET-based BODIPY-cyclopamine competition binding at Nluc-FZD6 in live HEK293 cells
Experimental conditions: 10 µM compound; BODIPY-cyclopamine 300 nM; TECAN Spark reader (complete tracer displacement: net BRET = -0.03823)
Measured property: Displacement @ 10 µM compound (Nluc-FZD6) ΔBRET
Number only, no unit.

Past entries and their recorded results:
CCC(=O)Nc1cccc(C(=O)N[C@H]2CC[C@H](N(Cc3cccc(-c4ccncc4)c3)C(=O)c3sc4ccccc4c3Cl)CC2)c1 -0.0290
Nc1ccc(C(=O)N[C@H]2CC[C@H](N(Cc3cccc(-c4ccncc4)c3)C(=O)c3sc4ccccc4c3Cl)CC2)nn1 -0.0328

Turning now to a further compound:
QUERY: Provide one value: measured Displacement @ 10 µM compound (Nluc-FZD6) ΔBRET of CN1CCC(C(=O)Nc2cccc(C(=O)N[C@H]3CC[C@H](N(Cc4cccc(-c5ccncc5)c4)C(=O)c4sc5ccccc5c4Cl)CC3)c2)CC1
RESULT: -0.0281

# credit: paper PMC12605013
